Test system: Oral squamaous carcinoma HSC-3 cells
Assay: Single-agent cytotoxicity assay in head & neck tumor cell lines
Type: cell-based
Details: Homo sapiens, 168 h; HSC-3, 7 days, 1500/well
measured-parameter: IC50 (nM)

compound: Cn1ncnc1[C@H]1c2n[nH]c(=O)c3cc(F)cc(c23)N[C@@H]1c1ccc(F)cc1 [free base]
reading: 972

====

Tested on: Mantle cell lymphoma cell line Granta-519
Assay: Single-agent cytotoxicity assay, CellTiter Glo cell survival
Assay type: cell-based
Conditions: Homo sapiens, Granta-519, 96 h, Granta-519, 5000/well, 4-day assay
pIC50: −log10 of the molar value.
measured-parameter: pIC50

compound: Cn1ncnc1[C@H]1c2n[nH]c(=O)c3cc(F)cc(c23)N[C@@H]1c1ccc(F)cc1 [free base]
measured-parameter: pIC50
reading: 8.05

====

Test system: Oral squamaous carcinoma CAL 27
Assay: Single-agent cytotoxicity assay in head & neck tumor cell lines
Format: cell-based
Conditions: Homo sapiens, CAL-27, 168 h; CAL27, 7 days, 800/well
pIC50: −log10 of the molar value.

compound: Cn1ncnc1[C@H]1c2n[nH]c(=O)c3cc(F)cc(c23)N[C@@H]1c1ccc(F)cc1 [free base]
target-system: Oral squamaous carcinoma CAL 27
pIC50: 7.64

====

Test: Thermogravimetric analysis (TGA)
Type: physicochemical
Details: TGA at 120 °C; ramp 10.00 °C/min to 300.00 °C

compound: Cn1ncnc1[C@H]1c2n[nH]c(=O)c3cc(F)cc(c23)N[C@@H]1c1ccc(F)cc1 [compound 20]
Weight Change (%): 1.926
--
compound: Cn1ncnc1[C@H]1c2n[nH]c(=O)c3cc(F)cc(c23)N[C@@H]1c1ccc(F)cc1 [compound 1]
Weight Change (%): 1.45
--
compound: Cn1ncnc1[C@H]1c2n[nH]c(=O)c3cc(F)cc(c23)N[C@@H]1c1ccc(F)cc1 [compound 3]
Weight Change (%): 2.33
--
compound: Cn1ncnc1[C@H]1c2n[nH]c(=O)c3cc(F)cc(c23)N[C@@H]1c1ccc(F)cc1 [compound 19]
Weight Change (%): 1.054

====

Catalogue of molecules with associated % Change in weight
Test: Thermogravimetric analysis (TGA)
Assay type: physicochemical
Conditions: TGA, start about 25 °C, stop 120 °C; ramp 10.00 °C/min to 400.00 °C; tosylate salt
measured-parameter: % Change in weight (%)

molecule: Cc1ccc(S(=O)(=O)O)cc1.Cn1ncnc1[C@H]1c2n[nH]c(=O)c3cc(F)cc(c23)N[C@@H]1c1ccc(F)cc1 [compound 6]
measured-parameter: % Change in weight
reading: 0.0388
//
molecule: Cc1ccc(S(=O)(=O)O)cc1.Cn1ncnc1[C@H]1c2n[nH]c(=O)c3cc(F)cc(c23)N[C@@H]1c1ccc(F)cc1 [compound 7]
measured-parameter: % Change in weight
reading: 0.2109
//
molecule: Cc1ccc(S(=O)(=O)O)cc1.Cn1ncnc1[C@H]1c2n[nH]c(=O)c3cc(F)cc(c23)N[C@@H]1c1ccc(F)cc1 [compound 8]
measured-parameter: % Change in weight
reading: 0.06696
//
molecule: Cc1ccc(S(=O)(=O)O)cc1.Cn1ncnc1[C@H]1c2n[nH]c(=O)c3cc(F)cc(c23)N[C@@H]1c1ccc(F)cc1 [compound 5]
measured-parameter: % Change in weight
reading: 0.1231

====

System: Basaloid squamous cell line PE/CA-PJ34 (clone 12)
Experiment: Single-agent cytotoxicity assay in head & neck tumor cell lines
Assay type: cell-based
Conditions: 240 h; PE/CA-PJ34 C12, 10 days, 2000/well
measured-parameter: IC50 (nM)

compound: Cn1ncnc1[C@H]1c2n[nH]c(=O)c3cc(F)cc(c23)N[C@@H]1c1ccc(F)cc1 [free base]
target-system: Basaloid squamous cell line PE/CA-PJ34 (clone 12)
reading: 13.6
